- measurement target: Atroxlysin-I (Atr-I) (Bothrops atrox, UniProt P85420)
- Sequence (P85420 whole entry, added parts left off): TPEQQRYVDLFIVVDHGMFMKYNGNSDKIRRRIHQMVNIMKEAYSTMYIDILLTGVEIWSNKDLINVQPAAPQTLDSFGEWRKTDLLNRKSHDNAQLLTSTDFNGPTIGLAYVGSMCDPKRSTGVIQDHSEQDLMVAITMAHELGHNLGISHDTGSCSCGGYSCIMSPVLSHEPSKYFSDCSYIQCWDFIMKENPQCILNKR
quantity: pKi
pKi field: float, defined as -log10 of concentration (mol/L).

Here's what some known entries look like.
CC(C)(NS(=O)(=O)c1ccc(Oc2ccc(F)cc2)cc1)C(=O)NO [CP4, CP471474] : 6.80
CNC(=O)[C@@H](NC(=O)[C@H](CC(C)C)[C@H](O)C(=O)NO)C(C)(C)C [MAR, marimastat] : 7.22

Next molecule, pKi to be filled in.
GET /value?item= CC1(C)SCCN(S(=O)(=O)c2ccc(Oc3ccncc3)cc2)[C@H]1C(=O)NO [PRI, prinomastat] &field=pKi returns 7.15

###

Consider the following compounds and their measured Hill coef. readings.
- measurement target: Atroxlysin-I (Atr-I) (Bothrops atrox)
- experiment summary: biochemical
Residues, ends and D or L forms follow the SMILES beside them. *: point of attachment. Cbz = O=C(OCc1ccccc1)*; NHOH = ON*
Respond numerically, and do not add a unit to the figure.

Briefly, Hill coef. measured for CC(C)(NS(=O)(=O)c1ccc(Oc2ccc(F)cc2)cc1)C(=O)NO : 2.37

The compound CC1(C)SCCN(S(=O)(=O)c2ccc(Oc3ccncc3)cc2)[C@H]1C(=O)NO showed Hill coef. equal to 0.77

Reported Hill coef. for CNC(=O)[C@H](Cc1ccccc1)NC(=O)[C@H](CC(C)C)[C@H](CSc1cccs1)C(=O)NO was 0.85

The reported value for CNC(=O)[C@H](CCc1ccccc1)NC(=O)[C@H](CC(=O)NO)CC(C)C in terms of Hill coef. is 1.79

compound CC(C)C[C@H](NC(=O)[C@@H]1CCCN1C(=O)OCc1ccccc1)C(=O)N[C@@H](C)C(=O)NO [COL, collagenase-I inhibitor] (Cbz-Pro-Leu-Ala-{NHOH}) , Hill coef. observed: 2.28

# Hill coef. of CNC(=O)[C@@H](NC(=O)[C@H](CC(C)C)[C@H](O)C(=O)NO)C(C)(C)C = 2.05

###

Catalogue of IC50 values
- measurement target: Leucurolysin-a (Leuc-a) (Bothrops leucurus)
- Sequence (P84907 whole entry, looked up): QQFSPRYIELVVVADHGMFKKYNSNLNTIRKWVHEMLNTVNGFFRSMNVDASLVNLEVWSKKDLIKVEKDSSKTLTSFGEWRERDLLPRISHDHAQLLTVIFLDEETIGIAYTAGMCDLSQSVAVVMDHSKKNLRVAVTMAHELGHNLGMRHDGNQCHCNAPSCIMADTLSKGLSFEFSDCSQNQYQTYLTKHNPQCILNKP
Residues, ends and D or L forms follow the SMILES beside them. *: point of attachment. Cbz = O=C(OCc1ccccc1)*; NHOH = ON*
// units = nM; emit number, no label

CC(C)(NS(=O)(=O)c1ccc(Oc2ccc(F)cc2)cc1)C(=O)NO : 210
CC(C)C[C@H](NC(=O)[C@@H]1CCCN1C(=O)OCc1ccccc1)C(=O)N[C@@H](C)C(=O)NO [COL, collagenase-I inhibitor] (Cbz-Pro-Leu-Ala-{NHOH}) : 6000

Given the molecule CNC(=O)[C@@H](NC(=O)[C@H](CC(C)C)[C@H](O)C(=O)NO)C(C)(C)C and test system Leucurolysin-a (Leuc-a) (Bothrops leucurus), the measured IC50 is 690

The molecule CC1(C)SCCN(S(=O)(=O)c2ccc(Oc3ccncc3)cc2)[C@H]1C(=O)NO on Leucurolysin-a (Leuc-a) (Bothrops leucurus): IC50 was 20

Form field IC50 for item CNC(=O)[C@H](Cc1ccccc1)NC(=O)[C@H](CC(C)C)[C@H](CSc1cccs1)C(=O)NO on Leucurolysin-a (Leuc-a) (Bothrops leucurus): 12000

For CNC(=O)[C@H](CCc1ccccc1)NC(=O)[C@H](CC(=O)NO)CC(C)C on Leucurolysin-a (Leuc-a) (Bothrops leucurus), measured IC50 was 360

###

- measurement target: Leucurolysin-a (Leuc-a) (Bothrops leucurus)
- experiment summary: biochemical
Residues, ends and D or L forms follow the SMILES beside them. *: point of attachment. Cbz = O=C(OCc1ccccc1)*; NHOH = ON*
quantity: Hill coef.
Give the value as a plain number.

CC(C)C[C@H](NC(=O)[C@@H]1CCCN1C(=O)OCc1ccccc1)C(=O)N[C@@H](C)C(=O)NO [COL, collagenase-I inhibitor] (Cbz-Pro-Leu-Ala-{NHOH}) : 1.65
CC(C)(NS(=O)(=O)c1ccc(Oc2ccc(F)cc2)cc1)C(=O)NO : 0.55
CNC(=O)[C@H](Cc1ccccc1)NC(=O)[C@H](CC(C)C)[C@H](CSc1cccs1)C(=O)NO : 4.91
CNC(=O)[C@H](CCc1ccccc1)NC(=O)[C@H](CC(=O)NO)CC(C)C : 1.34

Short answer on Leucurolysin-a (Leuc-a) (Bothrops leucurus) for CNC(=O)[C@@H](NC(=O)[C@H](CC(C)C)[C@H](O)C(=O)NO)C(C)(C)C , Hill coef.: 0.78

Result for CC1(C)SCCN(S(=O)(=O)c2ccc(Oc3ccncc3)cc2)[C@H]1C(=O)NO , tested on Leucurolysin-a (Leuc-a) (Bothrops leucurus), Hill coef.: 1.96

###

- measurement target: Atroxlysin-I (Atr-I) (Bothrops atrox, UniProt P85420)
Residues, ends and D or L forms follow the SMILES beside them. *: point of attachment. Cbz = O=C(OCc1ccccc1)*; NHOH = ON*
quantity: pIC50
Quick note: pIC50 means taking -log10 of the concentration in moles per liter.

CC1(C)SCCN(S(=O)(=O)c2ccc(Oc3ccncc3)cc2)[C@H]1C(=O)NO : 6.80
CC(C)C[C@H](NC(=O)[C@@H]1CCCN1C(=O)OCc1ccccc1)C(=O)N[C@@H](C)C(=O)NO [COL, collagenase-I inhibitor] (Cbz-Pro-Leu-Ala-{NHOH}) : 5.10

Noted for CC(C)(NS(=O)(=O)c1ccc(Oc2ccc(F)cc2)cc1)C(=O)NO : its pIC50 reads 7.70

get_value(item= CNC(=O)[C@@H](NC(=O)[C@H](CC(C)C)[C@H](O)C(=O)NO)C(C)(C)C , readout=pIC50) returns 7.10

Kindly note the recorded pIC50 for CNC(=O)[C@H](Cc1ccccc1)NC(=O)[C@H](CC(C)C)[C@H](CSc1cccs1)C(=O)NO , which is 7.30

Briefly, pIC50 measured for CNC(=O)[C@H](CCc1ccccc1)NC(=O)[C@H](CC(=O)NO)CC(C)C : 7.30
